So I've got a bunch of binders here, and I need their Kd values.
# TESTED_ON: CV S-protein construct 6 trimer TP31001F (SARS-CoV-2, UniProt P0DTC2 14-1208)
# METHOD_DESCRIPTION: SPR
Your answer is read as nM, so omit the unit and give the number.

Report measured Kd; entry is variant 5-1 (Fc fusion, VHH-Fc) VHH: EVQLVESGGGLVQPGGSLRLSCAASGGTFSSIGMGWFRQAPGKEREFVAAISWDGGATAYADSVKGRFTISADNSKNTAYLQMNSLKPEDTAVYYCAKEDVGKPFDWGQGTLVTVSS
0.4

Input variant 5-52 (Fc fusion) VHH: EVQLVESGGGLVQPGGSLRLSCAASGEKFSDHWMGWFRQAPGKEREFVATITFSGARTAYADSVKGRFTISADNSKNTAYLQMNSLKPEDTAVYYCAALIKPSSTDRIFEEWGQGTLVTVSS , output reported Kd.
0.9
